target: Prostaglandin G/H synthase 1 (Homo sapiens)
Sequence (P23219 whole entry): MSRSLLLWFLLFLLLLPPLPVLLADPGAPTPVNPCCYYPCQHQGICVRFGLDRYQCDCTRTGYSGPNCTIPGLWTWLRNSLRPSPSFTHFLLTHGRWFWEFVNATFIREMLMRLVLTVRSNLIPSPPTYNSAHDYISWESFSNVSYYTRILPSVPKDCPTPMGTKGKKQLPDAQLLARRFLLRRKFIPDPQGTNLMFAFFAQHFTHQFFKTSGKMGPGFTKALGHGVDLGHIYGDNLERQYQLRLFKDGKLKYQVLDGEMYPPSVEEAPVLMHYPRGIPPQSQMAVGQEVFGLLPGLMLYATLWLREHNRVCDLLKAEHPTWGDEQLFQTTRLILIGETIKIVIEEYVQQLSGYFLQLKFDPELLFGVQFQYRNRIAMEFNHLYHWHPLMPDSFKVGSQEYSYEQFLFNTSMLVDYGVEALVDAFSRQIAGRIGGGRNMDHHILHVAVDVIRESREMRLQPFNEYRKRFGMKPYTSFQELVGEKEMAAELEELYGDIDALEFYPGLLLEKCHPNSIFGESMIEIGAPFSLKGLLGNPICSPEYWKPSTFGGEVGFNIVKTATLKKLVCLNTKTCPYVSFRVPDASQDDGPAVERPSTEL
endpoint: IC50

**Query** // returns reported IC50 for input O=C(O)Cc1cnc(C(=O)c2ccc(NC(=O)c3ccc(Cl)c(Cl)c3)cc2)c2ccccc12
**Result** > 10 µM

====

Molecular target: Prostaglandin D2 receptor 2 (Homo sapiens, UniProt Q9Y5Y4)
Sequence (Q9Y5Y4 whole entry): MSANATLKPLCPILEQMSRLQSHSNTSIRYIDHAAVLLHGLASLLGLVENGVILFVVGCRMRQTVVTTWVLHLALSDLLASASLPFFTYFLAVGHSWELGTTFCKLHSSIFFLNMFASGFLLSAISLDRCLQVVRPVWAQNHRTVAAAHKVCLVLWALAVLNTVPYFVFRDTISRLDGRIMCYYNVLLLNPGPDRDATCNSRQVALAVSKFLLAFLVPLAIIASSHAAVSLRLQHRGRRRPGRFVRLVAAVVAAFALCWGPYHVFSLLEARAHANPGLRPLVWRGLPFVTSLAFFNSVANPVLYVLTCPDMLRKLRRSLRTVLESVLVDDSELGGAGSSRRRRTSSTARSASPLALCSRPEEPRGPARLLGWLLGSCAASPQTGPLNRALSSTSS
Experiment: Displacement of 3H-PGD2 from human CRTH2 receptor expressed in CHO cells
Type: cell-based
endpoint: IC50 (nM)
Write the answer as a number in nM, unit excluded.

**Query** Item under review: O=C(O)Cc1cnc(C(=O)c2ccc(NC(=O)c3ccncc3)cc2)c2ccccc12 . Reported IC50?
**Result** 83

**Query** Same lookup for O=C(O)Cc1cnc(C(=O)c2ccc(NC(=O)c3ncccn3)cc2)c2ccccc12 , please.
**Result** 290

**Query** Same for O=C(O)Cc1cnc(C(=O)c2ccc(NC(=O)c3ccc(Cl)c(Cl)c3)cc2)c2ccccc12
**Result** 19

**Query** Further, for O=C(O)Cc1cnc(C(=O)c2ccc(NC(=O)c3ccc(C(F)(F)F)cc3)cc2)c2ccccc12 ?
**Result** 4.9

**Query** Next up: O=C(O)Cc1cnc(C(=O)c2ccc(NC(=O)c3cc4ccccc4[nH]3)cc2)c2ccccc12
**Result** 3.2

====

Molecular target: Prostaglandin D2 receptor 2 (Homo sapiens, UniProt Q9Y5Y4)
Sequence (Q9Y5Y4 whole entry): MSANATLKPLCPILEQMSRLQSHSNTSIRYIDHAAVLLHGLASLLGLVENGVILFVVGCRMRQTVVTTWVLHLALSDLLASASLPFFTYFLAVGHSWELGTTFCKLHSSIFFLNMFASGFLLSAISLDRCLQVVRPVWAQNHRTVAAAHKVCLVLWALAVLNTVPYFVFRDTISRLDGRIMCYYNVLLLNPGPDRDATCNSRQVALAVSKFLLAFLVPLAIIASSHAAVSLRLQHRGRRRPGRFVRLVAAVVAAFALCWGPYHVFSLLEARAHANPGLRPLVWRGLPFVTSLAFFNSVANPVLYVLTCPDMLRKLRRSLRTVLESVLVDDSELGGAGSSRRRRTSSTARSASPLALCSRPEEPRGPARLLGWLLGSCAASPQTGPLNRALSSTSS
Assay: Displacement of 3H-PGD2 from human CRTH2 receptor expressed in CHO cells
Format: cell-based
endpoint: pIC50
// field semantics: pIC50 = negative decimal log of concentration (mol/L)

**Query** Recorded pIC50 for CC(C)(C(=O)O)c1cnc(C(=O)c2ccc(C(=O)NCCc3ccc(Cl)cc3)cc2)c2ccccc12 with Prostaglandin D2 receptor 2 (Homo sapiens, UniProt Q9Y5Y4), please?
**Result** 6.70

**Query** Do the same for O=C(O)Cc1cnc(C(=O)c2ccc(NS(=O)(=O)c3ccc(Cl)c(Cl)c3)cc2)c2ccccc12 please
**Result** 6.47

**Query** // same read-out, input: O=C(O)Cc1cnc(C(=O)c2ccc(NC(=O)/C=C/c3ccc(Cl)c(Cl)c3)cc2)c2ccccc12
**Result** 8.40

**Query** Likewise for O=C(O)Cc1cnc(C(=O)c2ccc(NC(=O)c3ccccc3)cc2)c2ccccc12 ?
**Result** 8.10

**Query** Same again, this time with CC(=O)Nc1ccc(C(=O)c2ncc(CC(=O)O)c3ccccc23)cc1
**Result** 6.48

**Query** Likewise for CN(C(=O)c1ccc(Cl)c(Cl)c1)c1ccc(C(=O)c2ncc(CC(=O)O)c3ccccc23)cc1 ?
**Result** 6.68

**Query** Moving on to the next compound: COc1ccc(C(=O)Nc2ccc(C(=O)c3ncc(CC(=O)O)c4ccccc34)cc2)cc1
**Result** 8.14

**Query** Please give the result for O=C(O)COc1cnc(C(=O)c2ccc(C(=O)NCCc3ccc(Cl)cc3)cc2)c2ccccc12 too.
**Result** 7.60

**Query** Next record, please: O=C(O)Cc1cnc(C(=O)c2ccc(NC(=O)C3CCCCC3)cc2)c2ccccc12
**Result** 7.85

meta.source: ChEMBL document CHEMBL2021917
